Origin of values: paper PMC10154516

target: CYP3A4 (Homo sapiens, UniProt P08684); construct: purchased BioVision Inc. K702-200; assay: CYP3A4 inhibitory in vitro assay (fluorometric inhibitor screening kit); format: biochemical; conditions: human, probe kit CYP3A4 substrate metabolised to resorufin (not named); Concentration 150 (unit inferred); read-out: % Relative Inhibition
Sequence (P08684 whole entry): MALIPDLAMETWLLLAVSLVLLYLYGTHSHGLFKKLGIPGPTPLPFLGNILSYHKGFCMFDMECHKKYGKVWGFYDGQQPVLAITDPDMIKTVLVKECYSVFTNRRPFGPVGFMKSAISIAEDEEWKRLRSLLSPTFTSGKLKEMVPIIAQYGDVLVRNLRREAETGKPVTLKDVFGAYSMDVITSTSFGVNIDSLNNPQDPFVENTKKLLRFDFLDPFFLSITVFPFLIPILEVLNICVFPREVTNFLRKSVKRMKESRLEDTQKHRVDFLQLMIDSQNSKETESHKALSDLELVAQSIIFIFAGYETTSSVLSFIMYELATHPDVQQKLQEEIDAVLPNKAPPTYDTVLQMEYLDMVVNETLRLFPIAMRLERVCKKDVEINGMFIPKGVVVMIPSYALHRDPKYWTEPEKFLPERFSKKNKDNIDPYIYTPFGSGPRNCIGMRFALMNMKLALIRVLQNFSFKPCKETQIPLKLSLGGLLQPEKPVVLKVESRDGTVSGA
QUANTITY_NAME: inhibition at 150 µM (%)
Hi! Could you send only the number? It should be in %, unit omitted.

CC(=O)N1CCN(c2ccc(OCC3COC(Cn4ccnc4)(c4ccc(Cl)cc4Cl)O3)cc2)CC1 (centres unmarked) [Ketoconazole]; 72.5

Prompt: Notebook: pull reported inhibition at 150 µM for CYP3A4 (Homo sapiens, UniProt P08684), entry O=C1O[C@H]2[C@@H]3OC(=O)c4cc(O)c(O)c(O)c4-c4c(O)c(O)c5oc(=O)c6c(c(O)c(O)c7oc(=O)c4c5c76)-c4c(cc(O)c(O)c4O)C(=O)OC[C@H]3OC(O)[C@@H]2OC(=O)c2cc(O)c(O)c(O)c2-c2c1cc(O)c(O)c2O (mixture of isomers) [Punicalagin]
Response: 64.5
